Experiment: basal RPMI8226 viability, no added stimulus, profiling panel, cell-based, calcein-AM fluorescence, 48 h, PK04 Diversity Set (AID 1166);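 further: cells grown under basal conditions without added stimulus; test concentration not given here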
Conditions: RPMI8226 myeloma viability, higher = more signal
metric: z-score
Answer with a bare number; do not write a unit.

What z-score value was documented for this compound, COC(=O)C(CC#Cc1ccc2c(c1)[C@]1(C(=O)N2)[C@H](c2ccc(OCCO)cc2)N2[C@H](c3ccccc3)[C@H](c3ccccc3)OC(=O)[C@H]2[C@@H]1C(=O)NC[C@H](O)c1ccccc1)C(=O)OC ?
-1.2

Ok, now O=C1O[C@@H](c2ccccc2)[C@@H](c2ccccc2)N2[C@@H](c3ccccc3OCCO)[C@]3(C(=O)Nc4ccc(C#CC5(O)CCCCCC5)cc43)[C@@H](C(=O)Nc3nc4ccccc4s3)[C@H]12
-4.17

Ok, now O=C1[C@]2(CO)C=C(Br)[C@@H](C[C@@H]2c2ccccc2)[C@@]12CO2
-2.68

###

Test: anti-His antibody binders, primary screen, artefact control for SMM control protein annotation, biochemical, small-molecule microarray, 635 nm fluorescence (AID 1128);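 further: score merges feature fluorescence with signal-to-noise for each printed compound spot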
Conditions: anti-His Alexa647 antibody binding, higher = more signal
Would you kindly list composite z-score for each of these compounds?
Answer with a bare number; do not write a unit.

What composite z-score value was documented for this compound, COC(=O)[C@@]1(Cc2ccc(F)cc2)[C@H]2c3cc(C(=O)N(C)C)n(CCc4ccccn4)c3C[C@H]2CN1C(=O)c1ccccc1 ?
1.47

Ok, now CCCCC(O)C1C=CC2C(=O)N(C3CCCCC3)C(=O)C2N1Nc1ccc(OC)cc1 (stereo not drawn)
0.17

Ok, now COCCCNC(=O)[C@@]1(C)c2ccccc2C(=O)N(Cc2cc(C(F)(F)F)cc(C(F)(F)F)c2)[C@H]1c1ccc(CO)cc1
-0.12

Ok, now Cc1cc(C)c(C(O)C2C=CC3C(=O)N(c4ccccc4)C(=O)C3N2Nc2ccc(C#N)cc2)c(C)c1 (stereo not drawn)
1.21

Ok, now Cc1c(NC(=O)CC#N)c(=O)n(-c2ccccc2)n1C
0.514

Ok, now CC(C)CNC(=O)[C@@]1(c2ccc([N+](=O)[O-])cc2)CC(=O)N(CC23CC4CC(CC(C4)C2)C3)[C@@H]1c1ccc(CO)cc1I
1.33

Ok, now [N-]=[N+]=Nc1ccccc1[C@@H]1OC(c2ccc(OCCCO)cc2)=N[C@]1(CCS(=O)(=O)c1ccccc1)C(=O)N1CCOCC1
1.48

Ok, now O=C1O[C@@H](c2ccccc2)[C@@H](c2ccccc2)N2[C@@H](c3ccc(OCCO)cc3)[C@]3(C(=O)Nc4ccccc43)[C@@H](C(=O)Nc3nc4ccccc4s3)[C@H]12
2.11

Ok, now COCCOC(=O)N1C(=O)[C@@]2(c3cc(C#CCCO)ccc31)[C@H](c1ccc(O)cc1)N1[C@H](c3ccccc3)[C@H](c3ccccc3)OC(=O)[C@H]1[C@@H]2C(N)=O
3.05

Ok, now CC(C)NC(=O)[C@@H]1c2ccccc2C(=O)N(Cc2ccccc2)[C@H]1c1ccc(CO)cc1
0.166

Ok, now COCCOC(=O)N1C(=O)[C@@]2(c3cc(C#CCC(C(=O)OC)C(=O)OC)ccc31)[C@H](c1ccc(O)cc1)N1[C@H](c3ccccc3)[C@H](c3ccccc3)OC(=O)[C@H]1[C@@H]2C(N)=O
1.54

Ok, now COC(=O)C(CC#Cc1ccc2c(c1)[C@]1(C(=O)N2)[C@H](c2ccc(OCCO)cc2)N2[C@H](c3ccccc3)[C@H](c3ccccc3)OC(=O)[C@H]2[C@@H]1C(=O)NC[C@H](O)c1ccccc1)C(=O)OC
1.06

Ok, now CCOC(=O)C[C@H]1[C@H](OC(=O)c2ccc(C(=O)c3ccccc3)cc2)[C@@H](NC(=O)C2CCCCC2)c2cc(OCCCO)ccc2N1C(=O)c1ccccc1
0.447

Data origin: PubChem BioAssay
